Assay: protein stability index of a GFP-peptide fusion (GPS, HEK-293T) (PSI 1-6); higher = more stable;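 note: 24-mer peptide tiles fused after GFP, lentivirally expressed, FACS-sorted into six equal bins by GFP/DsRed ratio, decoded by Illumina sequencing, PSI is the read-weighted mean bin number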
Conditions: treatment: DMSO; c terminus: a fixed tail appended
protein stability index of 3 or higher: Criterion met. Under 3: Criterion not met.

{"SEQUENCE_ENTRY": "DTANEIGQVLHFENVKDVPFGFQT [SERPINB5]", "CLASS_LABEL": "Criterion met"}

Check if protein stability index >= 3 (inclusive). Item: RKGKDKENGSVSSSETPPPPPPPN [EIF5]
Criterion met

----------
Assay: protein stability index of a GFP-peptide fusion (GPS, HEK-293T) (PSI 1-6); higher = more stable
Conditions: treatment: MLN4924 1 uM, 8 h; c terminus: a fixed tail appended
OBSERVED_PROPERTY: protein stability index
No unit in the answer, only the number.

Determine its reported protein stability index: LIVGAPIWFRVPYSIISLLLKDKV [PTPN9]
2.75

Determine its reported protein stability index: KAQALRDNSTMGYMMAKKHLEINP [HSP90AB1]
3.5

Determine its reported protein stability index: SDTTHLVTLGGVLRQQLVVSKELR [KLHL13]
3.1

Determine its reported protein stability index: MSGGGVIRGPAGNNDCRIYVGNLP [SRSF1]
2.96
